Measured IC50 by item
tested on: human SMAD7 mRNA; assay: Dose-dependent inhibition of human SMAD7 mRNA expression in A431 cells, oligonucleotide added without transfection (Example 5, Study 1); assay type: cell-based; settings: approximately 48 hours, SMAD7 mRNA

Here is how some substances turned out for IC50.
* 736697 (antisense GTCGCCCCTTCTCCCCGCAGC; chemistry not fully specified) [compound 736697] | > 20 µM
* 790615 (CCAATGAGAATGCTTC; 3-10-3 cEt gapmer, further chemistry not given here) [compound 790615] | 0.7 µM

Task: Could you share which IC50 value was measured for 830121 (AGAATCAAGCCCTGGC; 3-10-3 cEt gapmer, further chemistry not given here) [compound 830121] ?
Result: > 20 µM

====

assay: Body and organ weights after subcutaneous administration in beagle dogs (Example 8); format: in vivo; conditions: 30 mg/kg subcutaneous days 1, 3, 5, 8, 15, 22, 29, end of study
Measured Kidney weight by item
The reply must contain the numeric value and, after it, the unit.

* 829994 (GGAGGCAGGGCCGCGA; 3-10-3 cEt gapmer, further chemistry not given here) [compound 829994] | 39.1 g
* 830121 (AGAATCAAGCCCTGGC; 3-10-3 cEt gapmer, further chemistry not given here) [compound 830121] | 40.0 g

Task: Could you share which Kidney weight value was measured for 798781 (CGTAAGATTCACAGCA; 3-10-3 cEt gapmer, further chemistry not given here) [compound 798781] ?
Result: 40.0 g

Task: Could you share which Kidney weight value was measured for 830037 (antisense CTATTGGCTGATCTGG; 3-10-3 cEt gapmer, further chemistry not given here) [compound 830037] ?
Result: 36.7 g

Task: Could you share which Kidney weight value was measured for 830025 (antisense TTTGTAAATCGAAAGC; 3-10-3 cEt gapmer, further chemistry not given here) [compound 830025] ?
Result: 40.3 g

Task: Could you share which Kidney weight value was measured for 790615 (CCAATGAGAATGCTTC; 3-10-3 cEt gapmer, further chemistry not given here) [compound 790615] ?
Result: 44.1 g

====

Measured % Inhibition by item
tested on: human SMAD7 mRNA; experiment: Antisense inhibition of human SMAD7 mRNA expression in Hep3B cells by 3-10-3 cEt gapmers, 10,000 nM, electroporation (Example 2); format: cell-based; settings: Hep3B cells, electroporation with 10,000 nM antisense oligonucleotide, approximately 24 hours, RTS5062, percent inhibition of SMAD7 mRNA relative to untreated control cells
Strand notation (5' to 3'): a small letter for the sugar, then the base; units joined by * are phosphorothioate-linked, units joined directly phosphodiester-linked; [ ] holds rarer units or linkages, { } end groups; capitals alone tell only the bases. k = constrained ethyl (cEt); [5mC] = 5-methylcytosine; d = 2'-deoxy (DNA)
Give the number; % is assumed, so skip it.

Here is how some substances turned out for % Inhibition.
* 799787 (k[5mC]*k[5mC]*kA*dA*dA*dG*d[5mC]*dA*dG*dA*dA*dG*dT*kA*kG*kA; antisense) [compound 799787] | 58
* 799722 (antisense kG*k[5mC]*kA*dG*dA*dG*dT*dG*dA*dG*dA*dA*d[5mC]*kA*kA*kG) [compound 799722] | 67
* 799801 (kA*kA*kT*d[5mC]*dA*dA*dG*dT*d[5mC]*d[5mC]*dT*d[5mC]*dT*kG*kG*kA; antisense) [compound 799801] | 18
* 799310 (antisense kT*kA*kA*dG*d[5mC]*dA*d[5mC]*dG*d[5mC]*dT*d[5mC]*dT*dA*kA*kA*k[5mC]) [compound 799310] | 18
* 799314 (antisense k[5mC]*kA*kA*dG*dA*dT*d[5mC]*d[5mC]*dA*dT*d[5mC]*dT*dT*kT*kA*kA) [compound 799314] | 0

Task: Could you share which % Inhibition value was measured for 799783 (kG*k[5mC]*kA*d[5mC]*dA*dT*dA*dA*dT*dA*dG*dG*dT*kG*kT*k[5mC]; antisense) [compound 799783] ?
Result: 24

Task: Could you share which % Inhibition value was measured for 799610 (kG*kG*kG*dA*dG*dA*dA*dA*d[5mC]*dT*d[5mC]*d[5mC]*dT*k[5mC]*kA*kG; antisense) [compound 799610] ?
Result: 45

Task: Could you share which % Inhibition value was measured for 799546 (kT*kA*k[5mC]*dT*dG*dT*dT*dG*dG*d[5mC]*dA*dG*dT*kG*k[5mC]*kT; antisense) [compound 799546] ?
Result: 48

Task: Could you share which % Inhibition value was measured for 799568 (k[5mC]*kA*kT*dT*dA*dG*dA*dA*dG*d[5mC]*dT*dT*dT*kG*kA*kG; antisense) [compound 799568] ?
Result: 62

Task: Could you share which % Inhibition value was measured for 799662 (antisense k[5mC]*kG*kT*dG*dA*dG*d[5mC]*dA*d[5mC]*dT*dT*d[5mC]*dT*kG*kT*k[5mC]) [compound 799662] ?
Result: 55

Task: Could you share which % Inhibition value was measured for 799821 (antisense k[5mC]*k[5mC]*k[5mC]*d[5mC]*dA*dG*dA*dA*dA*dA*d[5mC]*dA*dG*k[5mC]*k[5mC]*k[5mC]) [compound 799821] ?
Result: 17

Task: Could you share which % Inhibition value was measured for 799707 (antisense kA*kA*kA*d[5mC]*dT*dT*dG*dT*dG*dG*dT*dA*dA*kA*kA*kT) [compound 799707] ?
Result: 38

Task: Could you share which % Inhibition value was measured for 799781 (kG*kT*k[5mC]*dA*dA*dT*dA*d[5mC]*dA*dT*dA*dT*dT*kT*kG*k[5mC]; antisense) [compound 799781] ?
Result: 66
